Values from the antibiotic and cytotoxicity screens of Wong et al. (2023)

Tested on: HepG2
Assay: cytotoxicity call (relative viability < 0.9)
Conditions: 10 µM
The campaign covered roughly 39,000 compounds. About 3,300 (8.5%) were called active. Many of the other results were omitted from the sample, so actives are more common in it than they were.
A correct response names exactly one class from t = active, f = inactive

| smiles.input | group.label |
| --- | --- |
| C[C@@H]1CN([C@H](C)CO)C(=O)c2cc(NC(=O)NC3CCCCC3)ccc2O[C@@H]1CN(C)Cc1ccc(C(=O)Nc2ccccc2N)cc1 | f |

Task: Give the logged outcome of this assay for the following compound: Cc1ccc(S(=O)(=O)Nc2cccc3c2O[C@H](CN(C)C(=O)Nc2ccc(C(F)(F)F)cc2)[C@@H](C)CN([C@@H](C)CO)C3=O)cc1
Output: f

Task: Repeat with COc1ccc(CCN(C)CCCOc2ccc(S(=O)(=O)c3c(C(C)C)cn4ccccc34)cc2)cc1OC
Output: t

Task: Repeat with COc1ccc(NC(=O)N(C)C[C@H]2Oc3c(NC(=O)C4CCOCC4)cccc3C(=O)N([C@@H](C)CO)C[C@H]2C)cc1
Output: f

Task: Repeat with CC(=O)n1nc(-c2cccnc2)nc1N
Output: f

Task: Repeat with COc1ccc(C(=O)NCc2ccc(OCCN(C)C)cc2)cc1OC
Output: f

Task: Repeat with C[C@@H]1CN([C@@H](C)CO)C(=O)c2cc(NS(=O)(=O)c3ccc(Cl)cc3)ccc2O[C@@H](C)CCCCO[C@H]1CN(C)Cc1ccc(C(=O)O)cc1
Output: f

Task: Repeat with COc1ccc(CCN(C)CCCOc2ccc(S(=O)(=O)c3[nH]c4ccccc4c3C(C)C)cc2)cc1OC
Output: t

----------
Tested on: HepG2
Test: cytotoxicity call (relative viability < 0.9)
Conditions: 10 µM
The campaign covered roughly 39,000 compounds. About 3,300 (8.5%) were called active. This excerpt belongs to a sample that is enriched for actives.
A correct response names exactly one class from yes for active, no for inactive

Task: Give the logged outcome of this assay for the following molecule: COc1cc2c(Oc3ccc(NC(=O)C4(C(=O)Nc5ccc(F)cc5)CC4)cc3F)ccnc2cc1OCCCN1CCOCC1
Output: yes

----------
Test system: HepG2
Experiment: cytotoxicity call (relative viability < 0.9)
Settings: 10 µM
Among all 39,000 compounds or so, about 3,300 (8.5%) were called active. The full list was thinned out, with actives kept by preference.
A correct response names exactly one class from t = active, f = inactive

Here are 2 compounds together with their reported answers.
| smiles.input | study.target | group.label |
| --- | --- | --- |
| COc1ccc(S(=O)(=O)Nc2ccc3c(c2)C(=O)N([C@H](C)CO)C[C@H](C)[C@H](CN(C)C(=O)C2CCCCC2)OCCCC[C@H](C)O3)cc1 | HepG2 | t |
| C[C@@H]1CN([C@@H](C)CO)C(=O)c2cc(NS(=O)(=O)c3ccc(Cl)cc3)ccc2O[C@@H](C)CCCCO[C@H]1CN(C)C(=O)C1CCCCC1 | HepG2 | f |

Task: Give the logged outcome of this assay for the following compound: C[C@@H]1CCCCO[C@@H](CN(C)C(=O)C2CCCCC2)[C@H](C)CN([C@@H](C)CO)C(=O)c2cc(NS(=O)(=O)c3ccccc3)ccc2O1
Output: t

----------
Tested on: HepG2
Test: cytotoxicity call (relative viability < 0.9)
Conditions: 10 µM
Out of some 39,000 compounds screened, about 3,300 (8.5%) were called active. Shown is part of a subset that was picked to be rich in actives.
A correct response names exactly one class from active, inactive

Here are 5 compounds together with their reported answers.
| smiles.input | study.target | group.label |
| --- | --- | --- |
| C[C@H]1CN([C@@H](C)CO)C(=O)c2cc(NC(=O)Nc3cccc4ccccc34)ccc2O[C@@H]1CN(C)Cc1ccc(-c2ccccc2)cc1 | HepG2 | active |
| C[C@H]1CN([C@@H](C)CO)C(=O)c2cc(NC(=O)Nc3cccc4ccccc34)ccc2O[C@H]1CN(C)Cc1ccccc1 | HepG2 | inactive |
| Cc1ccc(S(=O)(=O)Nc2ccc3c(c2)C(=O)N([C@@H](C)CO)C[C@H](C)[C@@H](CN(C)Cc2ccc(-c4ccccc4)cc2)O3)cc1 | HepG2 | inactive |
| C[C@H](CO)N1C[C@H](C)[C@H](CN(C)Cc2ccc(C(=O)O)cc2)Oc2ccc(NC(=O)Nc3cccc4ccccc34)cc2C1=O | HepG2 | inactive |
| C[C@H](CO)N1C[C@H](C)[C@@H](CN(C)Cc2ccc(-c3ccccc3)cc2)Oc2ccc(NC(=O)Nc3cccc4ccccc34)cc2C1=O | HepG2 | inactive |

Task: Give the logged outcome of this assay for the following compound: C[C@@H]1CN([C@@H](C)CO)C(=O)c2cc(NC(=O)Nc3cccc4ccccc34)ccc2O[C@@H]1CN(C)Cc1ccc(-c2ccccc2)cc1
Output: inactive

Task: Repeat with C[C@@H]1CN([C@H](C)CO)C(=O)c2cc(NC(=O)Nc3cccc4ccccc34)ccc2O[C@@H]1CN(C)Cc1ccc(C(=O)O)cc1
Output: inactive

----------
System: HepG2
Assay: cytotoxicity call (relative viability < 0.9)
Conditions: 10 µM
The campaign covered roughly 39,000 compounds. About 3,300 (8.5%) were called active. The sample as a whole holds a higher share of actives than the screen did.
A correct response names exactly one class from Yes for active, No for inactive

Task: Give the logged outcome of this assay for the following compound: CC(C)NC(=O)Nc1ccc2c(c1)CC(=O)N([C@H](C)CO)C[C@H](C)[C@@H](CN(C)Cc1ccc(-c3ccccc3)cc1)O2
Output: No

Task: Repeat with CC(C)C[C@@H]1NC(=O)[C@@H]2C[C@H](C(=O)NCCCCCCN(C)C)[C@H](c3cccc(OCCO)c3)N2C1=O
Output: No

Task: Repeat with CC(C)NC(=O)Nc1ccc2c(c1)CC(=O)N([C@H](C)CO)C[C@@H](C)[C@@H](CN(C)Cc1ccc(-c3ccccc3)cc1)O2
Output: Yes

Task: Repeat with COc1ccc(S(=O)(=O)N(C)C[C@H]2Oc3ccc(N(C)C)cc3CC(=O)N([C@H](C)CO)C[C@H]2C)cc1
Output: No

----------
Tested on: HepG2
Assay: cytotoxicity call (relative viability < 0.9)
Settings: 10 µM
Among all 39,000 compounds or so, about 3,300 (8.5%) were called active. This excerpt belongs to a sample that is enriched for actives.
parameter.measured: cytotoxicity call

Examples with their reported cytotoxicity call follow.
| smiles.input | cytotoxicity call |
| --- | --- |
| C[C@H](CO)N1C[C@H](C)[C@H](CN(C)C(=O)Nc2ccc(F)cc2)Oc2ncc(C#Cc3ccc(C(F)(F)F)cc3)cc2C1=O | inactive |
| Cc1ccc(S(=O)(=O)Nc2ccc3c(c2)CC(=O)N([C@H](C)CO)C[C@H](C)[C@H](CN(C)S(=O)(=O)c2ccccc2)O3)cc1 | inactive |
| COC(=O)c1c2oc(c1C(=O)OC)C(=O)N[C@@H](Cc1ccccc1)Cn1cc(nn1)CNC(=O)[C@@H](Cc1ccccc1)NC(=O)N[C@@H](CO)CC2 | inactive |
| Cc1ccc(S(=O)(=O)Nc2ccc3c(c2)C(=O)N([C@@H](C)CO)C[C@H](C)[C@@H](CN(C)C(=O)Cc2ccccc2)OCCCC[C@H](C)O3)cc1 | inactive |
| Cc1noc(C)c1S(=O)(=O)N(C)C[C@H]1Oc2ccc(NC(=O)C3CC3)cc2CC(=O)N([C@H](C)CO)C[C@@H]1C | inactive |

Then this compound:
Task: Fill blank: measured cytotoxicity call of the compound C[C@@H]1CCCCO[C@@H](CN(C)Cc2ccc(C(=O)O)cc2)[C@H](C)CN([C@@H](C)CO)C(=O)c2cc(NC(=O)c3ccccc3)ccc2O1 is ____.
Output: inactive

----------
Test system: HepG2
Assay: cytotoxicity call (relative viability < 0.9)
Settings: 10 µM
Screen size: about 39,000 compounds; about 3,300 (8.5%) were called active. The full list was thinned out, with actives kept by preference.
A correct response names exactly one class from active, inactive

| smiles.input | group.label |
| --- | --- |
| COc1ccc(S(=O)(=O)N(C)C[C@H]2Oc3ccc(NC(=O)c4ccncc4)cc3CC(=O)N([C@H](C)CO)C[C@H]2C)cc1 | inactive |
| Nc1ncnc2c1ncn2[C@@H]1O[C@H](COP(=O)(O)OP(=O)(O)OP(=O)(O)OP(=O)(O)OC[C@H]2O[C@@H](n3cnc4c(N)ncnc43)[C@H](O)[C@@H]2O)[C@@H](O)[C@H]1O | active |
| Nc1nc(F)nc2c1ncn2[C@@H]1O[C@H](CO)[C@@H](O)[C@H]1O | active |
| C[C@@H]1CN([C@@H](C)CO)C(=O)c2cc(NC(=O)Cc3cn(C)c4ccccc34)ccc2O[C@H]1CN(C)CC1CCCCC1 | inactive |
| Nc1ncnc2c1ncn2[C@H]1O[C@@H](CO)[C@H](O)[C@@H]1O | inactive |

Task: Give the logged outcome of this assay for the following molecule: C[C@@H]1CN([C@@H](C)CO)C(=O)Cc2cc(NC(=O)c3ccncc3)ccc2O[C@@H]1CN(C)Cc1ccncc1
Output: inactive

Task: Repeat with Nc1ncnc2c1ncn2[C@H]1O[C@@H](COP(=O)(O)OP(=O)(O)OP(=O)(O)O)[C@@H](O)[C@@H]1O
Output: inactive

Task: Repeat with CO[C@H]1CN(C)C(=O)c2ccc(NS(=O)(=O)c3cn(C)cn3)cc2OC[C@H](C)N(CC2CC2)C[C@H]1C
Output: inactive
